Values from patent US20250136574A1

test protocol: CC50 cytotoxicity, Promega CellTiter-Glo Luminescent Cell Viability Assay
Format: cell-based, African green monkey
experimental context: African green monkey, Vero cells; 72-hour incubation, CellTiter-Glo, n = 3
readout kind: CC50 at 72 hour

[Q] Item under review: CCCCCCC#Cc1cncc(-c2nnc(SCc3ccc([N+](=O)[O-])cc3[N+](=O)[O-])n2C)c1 . Reported CC50 at 72 hour?
[A] 28 µM

[Q] Item under review: CCCCCCC#Cc1cncc(-c2nnc(SCc3ccc([N+](=O)[O-])cc3)n2C)c1 [drawing 131] . Reported CC50 at 72 hour?
[A] 27 µM

[Q] Item under review: CCCCCCC#Cc1cncc(-c2nnc(SCc3ccc(Cl)cc3)n2C2CC2)c1 [drawing 136] . Reported CC50 at 72 hour?
[A] 25 µM

[Q] Item under review: CCCCCCC#Cc1cncc(-c2nnc(SCc3ccc([N+](=O)[O-])o3)n2C)c1 [drawing 135] . Reported CC50 at 72 hour?
[A] 33 µM

[Q] Item under review: CCCCCCC#Cc1cncc(-c2nnc(SCc3ccc(Cl)c(F)c3)[nH]2)c1 . Reported CC50 at 72 hour?
[A] > 125 µM

[Q] Item under review: CCCCCCC#Cc1cncc(-c2nnc(SCc3ccc(Cl)cc3)n2C)c1 [drawing 129] . Reported CC50 at 72 hour?
[A] 50 µM

[Q] Item under review: CCCCCCC#Cc1cncc(-c2nnc(SCc3ccc([N+](=O)[O-])o3)n2C2CC2)c1 [drawing 137] . Reported CC50 at 72 hour?
[A] 7.8 µM

###

Tested on: Vero cells
test protocol: CC50 cytotoxicity, Promega CellTiter-Glo Luminescent Cell Viability Assay
Format: cell-based, African green monkey
experimental context: ratio of CC50 in Vero cells to MABA IC50 in Mtb
Answer each item with its documented selectivity index (SI).

[Q] Item under review: CCCCCCC#Cc1cncc(-c2nnc(SCc3ccc(Cl)cc3)n2C)c1 [drawing 129] . Reported selectivity index (SI)?
[A] 9.3

[Q] Item under review: CCCCCCC#Cc1cncc(-c2nnc(SCc3ccc([N+](=O)[O-])o3)n2C)c1 [drawing 135] . Reported selectivity index (SI)?
[A] 314

[Q] Item under review: CCCCCCC#Cc1cncc(-c2nnc(SCc3ccc([N+](=O)[O-])cc3[N+](=O)[O-])n2C)c1 . Reported selectivity index (SI)?
[A] 27

[Q] Item under review: Cn1c(SCc2ccc(Cl)cc2)nnc1-c1cncc(C#Cc2ccccc2)c1 [drawing 138] . Reported selectivity index (SI)?
[A] >46

[Q] Item under review: CCCCCCC#Cc1cncc(-c2nnc(SCc3ccc(C#N)cc3)n2C)c1 [drawing 130] . Reported selectivity index (SI)?
[A] >3.7

[Q] Item under review: CCCCCCC#Cc1cncc(-c2nnc(SCc3ccc(Cl)c(F)c3)[nH]2)c1 . Reported selectivity index (SI)?
[A] >23

[Q] Item under review: CCCCCCC#Cc1cncc(-c2nnc(SCc3cc([N+](=O)[O-])cc([N+](=O)[O-])c3)n2C)c1 [drawing 133] . Reported selectivity index (SI)?
[A] >294

[Q] Item under review: CCCCCCC#Cc1cncc(-c2nnc(SCc3ccc([N+](=O)[O-])cc3)n2C)c1 [drawing 131] . Reported selectivity index (SI)?
[A] 1.3

[Q] Item under review: CCCCCCC#Cc1cncc(-c2nnc(SCc3ccc(Cl)cc3)n2C2CC2)c1 [drawing 136] . Reported selectivity index (SI)?
[A] 4.8

[Q] Item under review: CCCCCCC#Cc1cncc(-c2nnc(SCc3ccc([N+](=O)[O-])o3)n2C2CC2)c1 [drawing 137] . Reported selectivity index (SI)?
[A] 165
